Biological target: T1, Dimeric human CD48-mFc (human)
T1 chain: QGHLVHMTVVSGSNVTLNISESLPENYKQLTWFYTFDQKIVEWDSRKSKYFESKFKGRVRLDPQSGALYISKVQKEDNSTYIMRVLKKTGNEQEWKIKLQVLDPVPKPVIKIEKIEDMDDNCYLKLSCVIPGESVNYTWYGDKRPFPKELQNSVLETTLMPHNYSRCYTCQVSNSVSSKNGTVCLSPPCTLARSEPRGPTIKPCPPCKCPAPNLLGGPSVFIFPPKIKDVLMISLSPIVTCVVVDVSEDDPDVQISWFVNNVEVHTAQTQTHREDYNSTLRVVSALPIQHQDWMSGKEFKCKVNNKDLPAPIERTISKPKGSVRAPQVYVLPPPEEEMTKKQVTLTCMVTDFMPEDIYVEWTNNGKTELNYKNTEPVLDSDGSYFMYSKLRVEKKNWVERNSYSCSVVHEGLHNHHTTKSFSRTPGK
Assay: SPR (Biacore T100), 25 C, antibody captured by anti-Fc, dimeric CD48-mFc in solution
Here the recorded T½ is given for each entry.
measurement-label: T½ (h)

- binder: "H2M1710N (antibody, mouse IgG2, V domains shown, Human variable domains, mouse IgG2 Fc (prefix H2M)) VH: QVQLVQSGADMKKPGASVRVSCKASGYTFTDYFIHWVRQAPGQGPEWMGWINPDSGATNYAQQFQGRVTMTRDTSISATYMEMSRLRSDDTAVFYCARDKDGSGWYLDDWGQGTLVTVSS VL: EIVLTQSPATLSLSPGERATLSCRASQSVNIYLAWYQQKPGQAPRLLIYDASNRASGIPARFSGSGSGTDFTLTISSLEPEDFAVYYCQQRSNWPPSITFGQGTRLEIK"
  value-observed: 2.05
- binder: "H4H1781P (antibody, human IgG4, V domains shown, Human IgG4 Fc (prefix H4H)) VH: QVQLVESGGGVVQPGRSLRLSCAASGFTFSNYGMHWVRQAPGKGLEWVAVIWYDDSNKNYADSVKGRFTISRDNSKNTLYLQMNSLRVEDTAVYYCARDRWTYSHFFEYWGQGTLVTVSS VL: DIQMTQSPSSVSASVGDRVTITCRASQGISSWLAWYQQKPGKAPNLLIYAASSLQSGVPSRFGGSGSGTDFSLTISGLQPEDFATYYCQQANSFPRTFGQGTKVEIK"
  value-observed: 15.7
- binder: "H2M1707N (antibody, mouse IgG2, V domains shown) VH: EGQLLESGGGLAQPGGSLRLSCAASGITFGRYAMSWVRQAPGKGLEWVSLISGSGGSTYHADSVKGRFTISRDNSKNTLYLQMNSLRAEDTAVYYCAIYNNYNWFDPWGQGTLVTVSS VL: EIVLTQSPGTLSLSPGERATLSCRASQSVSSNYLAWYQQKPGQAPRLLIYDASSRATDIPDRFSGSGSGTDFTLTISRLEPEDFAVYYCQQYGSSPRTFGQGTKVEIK"
  value-observed: 2.92
- binder: "H2M1713N (antibody, mouse IgG2, V domains shown, Human variable domains, mouse IgG2 Fc (prefix H2M)) VH: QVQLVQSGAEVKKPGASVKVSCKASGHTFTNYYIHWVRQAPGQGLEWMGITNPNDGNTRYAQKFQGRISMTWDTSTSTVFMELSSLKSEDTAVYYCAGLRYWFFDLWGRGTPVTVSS VL: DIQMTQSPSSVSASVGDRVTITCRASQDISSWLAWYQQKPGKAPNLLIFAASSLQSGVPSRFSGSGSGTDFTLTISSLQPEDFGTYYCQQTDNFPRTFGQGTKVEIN"
  value-observed: 17.4
- binder: "H4H1713N (antibody, human IgG4, V domains shown, Human IgG4 Fc (prefix H4H)) VH: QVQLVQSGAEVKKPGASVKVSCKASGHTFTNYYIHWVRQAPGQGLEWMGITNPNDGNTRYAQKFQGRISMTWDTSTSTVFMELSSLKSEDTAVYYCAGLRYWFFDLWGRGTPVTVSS VL: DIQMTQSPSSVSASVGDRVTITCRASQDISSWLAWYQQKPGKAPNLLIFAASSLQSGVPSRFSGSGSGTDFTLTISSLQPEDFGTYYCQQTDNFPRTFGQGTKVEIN"
  value-observed: 10.2
- binder: "H4H1707N (antibody, human IgG4, V domains shown, Human IgG4 Fc (prefix H4H)) VH: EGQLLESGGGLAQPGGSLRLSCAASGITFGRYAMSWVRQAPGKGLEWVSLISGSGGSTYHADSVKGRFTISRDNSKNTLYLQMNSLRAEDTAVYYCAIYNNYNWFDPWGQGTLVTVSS VL: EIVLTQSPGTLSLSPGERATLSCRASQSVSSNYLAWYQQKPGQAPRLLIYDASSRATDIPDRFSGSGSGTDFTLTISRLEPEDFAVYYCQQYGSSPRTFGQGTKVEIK"
  value-observed: 6.8

The measurements presented in this section are drawn from patent US20130230533A1.
